- METHOD_DESCRIPTION: Inhibition of F1F0-ATPase synthesis activity in bovine submitochondrial particles
- Parameters: species or system Bos taurus
Items are presented alongside their recorded EC50.

Here is how some compounds turned out for EC50.
CN1C(=O)C(Cc2ccc3ccccc3c2)N=C(c2ccc(O)cc2)c2cc(Cl)ccc21 (stereo not given) | 5.5 µM
O=C1CN=C(c2ccccc2Cl)c2cc([N+](=O)[O-])ccc2N1 [CLONAZEPAM] | 120 µM
CCC(C)N(C)C(=O)c1cc2ccccc2c(-c2ccccc2Cl)n1 (stereo not given) [PK-11195] | 33 µM
CN1C(=O)CN=C(c2ccc(Cl)cc2)c2cc(Cl)ccc21 [RO-54864] | 210 µM

Now examine the next entry.
Prompt line: For CN1C(=O)CN=C(c2ccccc2)c2cc(Cl)ccc21 [DIAZEPAM] , what is its reported EC50?
Response line: 210 µM

---

# Lookup of reported EC50 keyed by entry
- System: Jurkat
- METHOD_DESCRIPTION: Induction of cell death in Jurkat cells after 24 hrs
- Type: functional, cell-based
- CONDITION_PARAMETERS: Homo sapiens
Please reply with the bare figure in µM and do not write the unit itself.

CCC(C)N(C)C(=O)c1cc2ccccc2c(-c2ccccc2Cl)n1 (stereo not given) | 75

Prompt line: What EC50 appears in the records for this compound with Jurkat? CN1C(=O)CN=C(c2ccccc2)c2cc(Cl)ccc21
Response line: 170

Prompt line: Next entry: CN1C(=O)C(Cc2ccc3ccccc3c2)N=C(c2ccc(O)cc2)c2cc(Cl)ccc21 (stereo not given)
Response line: 6

---

- Test system: Ramos
- METHOD_DESCRIPTION: Induction of cell death in Ramos cells after 24 hrs
- Assay type: functional, cell-based
- CONDITION_PARAMETERS: Homo sapiens
MEASUREMENT_TYPE: pEC50
// field semantics: pEC50 = negative decimal log of concentration (mol/L)

Consider the following illustrative entries.
CCC(C)N(C)C(=O)c1cc2ccccc2c(-c2ccccc2Cl)n1 (stereo not given) | 4.05
CN1C(=O)C(Cc2ccc3ccccc3c2)N=C(c2ccc(O)cc2)c2cc(Cl)ccc21 (stereo not given) | 5.20
CN1C(=O)CN=C(c2ccccc2)c2cc(Cl)ccc21 | 3.60

We now examine a further compound.
Prompt line: Tell me reported pEC50 for CN1C(=O)CN=C(c2ccc(Cl)cc2)c2cc(Cl)ccc21 , tested with Ramos.
Response line: 3.89

---

- System: Jurkat
- METHOD_DESCRIPTION: Induction of reactive oxygen species response in Jurkat cells after 1 hr
- Assay type: functional, cell-based
- CONDITION_PARAMETERS: Homo sapiens
MEASUREMENT_TYPE: EC50 (µM)
Dear colleague, please return just the value in µM, with no unit written.

Completed entries (count: 3):
CCC(C)N(C)C(=O)c1cc2ccccc2c(-c2ccccc2Cl)n1 (stereo not given) | 56
CN1C(=O)C(Cc2ccc3ccccc3c2)N=C(c2ccc(O)cc2)c2cc(Cl)ccc21 (stereo not given) | 10
CN1C(=O)CN=C(c2ccc(Cl)cc2)c2cc(Cl)ccc21 | 230

Prompt line: Recorded EC50 of CN1C(=O)CN=C(c2ccccc2)c2cc(Cl)ccc21 , please.
Response line: 200

The values you see were collected from ChEMBL document CHEMBL1139113.
